- METHOD: qHTS RealTime-Glo MT Cell Viability Assay in HepG2 cells - 16 hour (AID 1224885); also: nearly all actives have a fitted effect of over 50% in size
- CONDITIONS: RealTime-Glo luminescence; series mostly up to 76.8 µM
Results filed as inconclusive are left out. Activity calls are given as the source filed them. Calls follow the shape of the dose curve; as a rule, active = well fitted cell-killing curve with a large enough effect in the repeat runs; inconclusive = weak or mixed curves; inactive = flat fitted curve, though single readings scatter.
Outcome codes: active, inactive

- ClC1=C(Cl)[C@]2(Cl)[C@@H]3[C@@H](Cl)[C@H](Cl)C[C@@H]3[C@@]1(Cl)C2(Cl)Cl: inactive
- O=C(O)c1cc[c]([Hg][Cl])cc1: active
- O=c1ssc(Cl)c1Cl: active
- Oc1cccc(-c2ccccc2)c1: inactive
- CN(C)C(=S)[S-].CN(C)C(=S)[S-].[Cu+2]: active
- COS(=O)(=O)c1ccc(C)cc1: inactive
- ClC1=C(Cl)[C@]2(Cl)[C@H]3[C@H]([C@H]4C=C[C@H]3C4)[C@@]1(Cl)C2(Cl)Cl: inactive
- CC(C)C(=O)Cl: inactive
- FC(F)(F)c1cccc(C2=CCN(CCc3ccc4ccccc4c3)CC2)c1: inactive
- C[CH2][Hg][N]1C(=O)C2C(C1=O)C1(Cl)C(Cl)=C(Cl)C2(Cl)C1(Cl)Cl (configuration not stated): active
- C=CC(=O)OCC(COC(=O)C=C)(COC(=O)C=C)COC(=O)C=C: active
- CC(C)CC(C)N (configuration not stated): inactive

---

- METHOD: qHTS assay for identifying genotoxic compounds that show differential cytotoxicity against isogenic chicken DT40 cell lines with known DNA damage response pathways - Rad54/Ku70 mutant cell line (AID 743015); also: nearly all actives have a fitted effect of over 60% in size
- CONDITIONS: DT40 Rad54/Ku70 mutant viability, CellTiter-Glo, 40 h; series mostly up to 66.8 µM
Inconclusive results are not listed. The source made the active and inactive calls. Calls follow the shape of the dose curve; as a rule, active = well fitted cell-killing curve with a large enough effect in the repeat runs; inconclusive = weak or mixed curves; inactive = no such curve, though single readings can be large or run the other way.
Outcome codes: active, inactive

- CCC[CH2][Sn]([CH2]CCC)([CH2]CCC)[O]C(=O)c1ccccc1: active
- c1ccc(Nc2ccc3ccccc3c2)cc1: active
- Clc1ccc(C(Cl)(Cl)Cl)c(Cl)c1: inactive
- ClCc1ccc(Cl)cc1Cl: inactive
- CCOC(=O)CC(=O)CCl: active
- CCCCCCCCCCCCCCCC[n+]1ccccc1: active
- ClC1=C(Cl)C2(Cl)C3C(Cl)C=CC3C1(Cl)C2(Cl)Cl (configuration not stated): active
- N#CCCC(Br)(C#N)CBr (configuration not stated): active
- CC1CCC(C(C)C)C(OC(=O)c2ccccc2N)C1 (configuration not stated): active
- CC(C)N1C(=O)N(c2ccccc2)CSC1=NC(C)(C)C: active
- CCCCCCCCCCCCCC[P+](CCCCCC)(CCCCCC)CCCCCC (tested in a mixture with another compound): active
- COc1cc(C=O)cc2c1[C@H](COC(N)=O)[C@]1(OC(C)=O)ON2C[C@H]2[C@@H]1N2C(C)=O: active

---

- METHOD: qHTS assay to identify small molecule agonists of the sonic hedgehog signaling (Shh) pathway (AID 1259368);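 also: NIH/3T3-derived 3T3Gli1-Luc cells carrying a stable Gli1-driven firefly luciferase reporter; nearly all actives have a fitted effect of over 15% in size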
- CONDITIONS: NIH/3T3 Gli1-Luc reporter, luciferase, 24 h; series mostly up to 92.4 µM
- From the text: National Center for Advancing Translational Sciences [NCATS] NIH Chemical Genomics Center [NCGC] U.S. Environmental Protection Agency [EPA] National Institutes of Environmental Health Sciences [NIEHS] National Toxicology Program [NTP] The sonic hedgehog (Shh) pathway is essential for normal embryonic development. Dysregulation of the Shh pathway can cause severe developmental defects in organs. Therefore chemicals that interfere with the pathway are potential developmental toxicants. […]
Calls of active or inactive are those of the source. Calls follow the shape of the full dose curve.
EXPERIMENTAL READOUT: outcome

* CC1(c2ccc(Oc3ccccc3)cc2)OC(=O)N(Nc2ccccc2)C1=O (configuration not stated) | inactive
* COC[C@H](C)N(C(=O)CCl)c1c(C)csc1C | inactive
* CC(=O)[O-].CC(=O)[O-].[Hg+2] | inactive
* CCCCOCN(C(=O)CCl)c1c(CC)cccc1CC | inactive
* Cc1cc(Cl)ccc1O[C@H](C)C(=O)O | inactive
* S=C(SSC(=S)N1CCCCC1)N1CCCCC1 | inactive
* O=C(NC(=O)c1c(F)cccc1F)Nc1cc(Cl)c(OC(F)(F)C(F)F)c(Cl)c1 | inactive

This collection of values is drawn from PubChem BioAssay (Tox21).
